# PROTOCOL DETAILS: Microsomal stability, human liver microsomes
# Assay type: in vitro ADME
# ASSAY CONTEXT: human, microsomes, pH 7.4
READOUT TYPE: CLint scaled at 1 μM (mL/min/kg)
Number only, in mL/min/kg; omit the unit.

Data request: For the molecule Fc1ccc(-c2cnn3c(NCc4ccccn4)cc(C4CC4)nc23)cc1 [Compound 25] , what CLint scaled at 1 μM is on record?
Data returned: 68

Data request: Moving on to the next molecule: Fc1ccc(-c2cnn3c(NCc4cc(N5CCCCC5)ccn4)cc(-c4ccccc4)nc23)cc1 [Compound 68]
Data returned: 11

Data request: Moving on to the next molecule: Fc1ccc(-c2cnn3c(NCc4ccccn4)cc(C4=CCCC4)nc23)cc1 [Compound 26]
Data returned: 32

Data request: Moving on to the next molecule: Fc1ccc(-c2cnn3c(NCc4ccccn4)cc(-c4ccccc4F)nc23)cc1 [Compound 28]
Data returned: 18

Data request: Moving on to the next molecule: Fc1ccc(-c2cnn3c(NCc4ccccn4)cc(-c4ccc(OC(F)(F)F)cc4)nc23)cc1 [Compound 38]
Data returned: 15

Data request: Moving on to the next molecule: Fc1ccc(-c2cnn3c(NCc4ccccn4)cc(-c4ccsc4)nc23)cc1 [Compound 42]
Data returned: 43

Data request: Moving on to the next molecule: Fc1ccc(-c2cnn3c(NCc4ccccn4)cc(-c4ccoc4)nc23)cc1 [Compound 44]
Data returned: 66

Data request: Moving on to the next molecule: Fc1ccc(-c2cnn3c(NCc4ccccn4)cc(C4=CCCCC4)nc23)cc1 [Compound 27]
Data returned: 17

Data request: Moving on to the next molecule: Fc1ccc(-c2cnn3c(NCc4ccccn4)cc(-c4cccnc4)nc23)cc1 [Compound 39]
Data returned: 57

Data request: Moving on to the next molecule: COc1ccc(-c2cnn3c(NCc4ccccn4)cc(-c4ccccc4)nc23)cc1 [Compound 20]
Data returned: 20

Data request: Moving on to the next molecule: Fc1ccc(-c2cnn3c(NCc4ccccn4)cc(-c4ccccc4)nc23)cc1 [Compound 18]
Data returned: 12

* * *

# STUDY SYSTEM: hERG (Homo sapiens, UniProt Q12809)
# Sequence (Q12809 whole entry): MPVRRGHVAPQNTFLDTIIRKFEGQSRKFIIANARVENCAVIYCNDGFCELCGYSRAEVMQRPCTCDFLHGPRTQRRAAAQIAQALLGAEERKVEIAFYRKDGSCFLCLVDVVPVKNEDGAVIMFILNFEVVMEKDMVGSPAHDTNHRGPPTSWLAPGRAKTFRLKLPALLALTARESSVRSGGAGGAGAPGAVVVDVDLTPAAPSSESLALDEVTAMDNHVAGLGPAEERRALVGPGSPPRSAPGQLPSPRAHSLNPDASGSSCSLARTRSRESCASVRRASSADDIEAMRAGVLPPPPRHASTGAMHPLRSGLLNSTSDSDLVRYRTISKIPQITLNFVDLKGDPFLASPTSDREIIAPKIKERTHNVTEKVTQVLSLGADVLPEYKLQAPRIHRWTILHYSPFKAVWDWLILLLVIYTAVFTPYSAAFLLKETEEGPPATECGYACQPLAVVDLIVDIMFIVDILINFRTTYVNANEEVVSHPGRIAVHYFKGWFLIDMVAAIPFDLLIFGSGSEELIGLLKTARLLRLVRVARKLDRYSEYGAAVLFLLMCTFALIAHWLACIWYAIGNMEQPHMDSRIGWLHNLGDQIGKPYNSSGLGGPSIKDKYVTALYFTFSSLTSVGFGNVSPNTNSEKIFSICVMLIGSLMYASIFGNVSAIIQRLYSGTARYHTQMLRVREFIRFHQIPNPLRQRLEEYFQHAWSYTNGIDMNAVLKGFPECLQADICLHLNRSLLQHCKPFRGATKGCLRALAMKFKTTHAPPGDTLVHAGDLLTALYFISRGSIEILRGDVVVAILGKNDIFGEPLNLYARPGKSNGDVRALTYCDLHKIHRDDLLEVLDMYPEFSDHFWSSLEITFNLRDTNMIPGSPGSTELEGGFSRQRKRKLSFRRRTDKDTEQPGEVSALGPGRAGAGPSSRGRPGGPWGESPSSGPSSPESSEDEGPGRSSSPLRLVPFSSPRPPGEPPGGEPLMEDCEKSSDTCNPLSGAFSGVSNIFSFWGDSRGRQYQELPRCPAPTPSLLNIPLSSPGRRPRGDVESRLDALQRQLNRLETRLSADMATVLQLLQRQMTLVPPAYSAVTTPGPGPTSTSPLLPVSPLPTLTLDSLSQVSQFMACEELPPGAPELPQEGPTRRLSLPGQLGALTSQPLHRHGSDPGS
# PROTOCOL DETAILS: hERG channel blockade, manual patch clamp
# Type: cell-based
# ASSAY CONTEXT: cloned hERG potassium channels, 1.0 µM, room temperature, read-out: hERG % inhib. at 1.0 µM
READOUT TYPE: inhibition at 1 µM (%)
Number only, in %; omit the unit.

Data request: For the compound Fc1ccc(-c2cnn3c(NCc4ccccn4)cc(-c4cccnc4)nc23)cc1 , what inhibition at 1 µM is on record?
Data returned: 46

Data request: Moving on to the next compound: COc1ccc(-c2cnn3c(NCc4ccccn4)cc(-c4ccccc4)nc23)cc1
Data returned: 0

Data request: Moving on to the next compound: Fc1ccc(-c2cnn3c(NCc4ccccn4)cc(-c4ccsc4)nc23)cc1
Data returned: 24

Data request: Moving on to the next compound: Fc1ccc(-c2cnn3c(NCc4ccccn4)cc(-c4cccs4)nc23)cc1
Data returned: 0

Data request: Moving on to the next compound: COc1ccc(-c2cc(NCc3ccccn3)n3ncc(-c4ccc(F)cc4)c3n2)cc1
Data returned: 1

Data request: Moving on to the next compound: Fc1ccc(-c2cnn3c(NCc4ccc(Cl)cn4)cc(-c4ccccc4)nc23)cc1
Data returned: 0

Data request: Moving on to the next compound: CC(C)c1ccc(-c2cc(NCc3ccccn3)n3ncc(-c4ccc(F)cc4)c3n2)cc1
Data returned: 1

Data request: Moving on to the next compound: Fc1ccc(-c2cnn3c(NCc4ccccn4)cc(-c4ccc(OC(F)(F)F)cc4)nc23)cc1
Data returned: 2

Data request: Moving on to the next compound: Cc1cccc(-c2cc(NCc3ccccn3)n3ncc(-c4ccc(F)cc4)c3n2)c1
Data returned: 11

Data request: Moving on to the next compound: Fc1ccc(-c2cnn3c(NCc4ccccn4)cc(C4CC4)nc23)cc1
Data returned: 19

Data request: Moving on to the next compound: Fc1ccc(-c2cnn3c(NCc4ccc(F)cn4)cc(-c4ccccc4)nc23)cc1
Data returned: 11

All figures here come from paper PMC9506485.
